# PET hydrolysis product formed listing for each entry below
assay: PET hydrolysis product formed (TPA+MHET+BHET, UV-Vis) per mg enzyme (mmol/mg enzyme); higher = more PET depolymerisation activity; extreme values may be limits of the assay
conditions_used: PET substrate: aFilm; 70 °C; pH 9.5; 2 h
The answer should be a number; do not append a unit.

A selection of reference data follows.
record_sequence="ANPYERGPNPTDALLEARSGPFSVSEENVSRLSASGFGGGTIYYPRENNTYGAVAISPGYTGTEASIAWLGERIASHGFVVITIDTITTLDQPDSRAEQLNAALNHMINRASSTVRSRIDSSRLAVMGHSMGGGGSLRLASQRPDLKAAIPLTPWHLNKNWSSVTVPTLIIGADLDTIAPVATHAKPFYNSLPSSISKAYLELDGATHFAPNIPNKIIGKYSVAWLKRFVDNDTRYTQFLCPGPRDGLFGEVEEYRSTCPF [TfCut2]" readout="PET hydrolysis product formed" test_value=0.00877
record_sequence="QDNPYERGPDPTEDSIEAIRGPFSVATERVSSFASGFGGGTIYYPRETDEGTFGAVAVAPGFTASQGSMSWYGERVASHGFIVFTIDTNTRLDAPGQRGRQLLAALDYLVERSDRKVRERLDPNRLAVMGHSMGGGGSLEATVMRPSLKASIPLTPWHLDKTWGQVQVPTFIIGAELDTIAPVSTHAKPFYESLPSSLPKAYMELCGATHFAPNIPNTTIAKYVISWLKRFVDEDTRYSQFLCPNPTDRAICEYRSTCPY [Cut190*SS]" readout="PET hydrolysis product formed" test_value=0.0215

Now turn to the next sequence.
GET /values?readout=PET hydrolysis product formed&item= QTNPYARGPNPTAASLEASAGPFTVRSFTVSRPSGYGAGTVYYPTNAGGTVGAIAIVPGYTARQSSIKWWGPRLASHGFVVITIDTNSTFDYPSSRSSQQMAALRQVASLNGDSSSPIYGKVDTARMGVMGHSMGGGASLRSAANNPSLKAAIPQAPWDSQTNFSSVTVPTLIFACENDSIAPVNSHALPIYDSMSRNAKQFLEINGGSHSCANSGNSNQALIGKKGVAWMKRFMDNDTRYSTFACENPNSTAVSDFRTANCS [DuraPETase]
0.0191
